system-under-test: T1, human MSLN-hFc protein (Acro, Cat. No. MSN-H5253) (human, UniProt Q13421 296-580)
T1 construct: the method names the coated protein as human MSLN-hFc (Acro); also called human MSLN full-length protein
T1 sequence (Q13421 other isoform, or with tags, fused parts or gaps limits assumed): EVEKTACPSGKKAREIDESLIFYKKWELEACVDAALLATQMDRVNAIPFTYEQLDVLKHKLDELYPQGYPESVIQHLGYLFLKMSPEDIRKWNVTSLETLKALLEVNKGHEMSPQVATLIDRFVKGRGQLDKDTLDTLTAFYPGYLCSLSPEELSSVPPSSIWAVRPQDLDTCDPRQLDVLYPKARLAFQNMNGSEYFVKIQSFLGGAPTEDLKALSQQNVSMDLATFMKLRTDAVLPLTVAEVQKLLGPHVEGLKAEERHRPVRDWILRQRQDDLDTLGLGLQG
procedure-summary: ELISA on coated antigen, antibody 0.1 nM
measurement-label: OD450 (OD450)
Numbers only, in OD450.

Here is how some binders turned out for OD450.
>  <binder>
F7.33.24-H2 (scFv, not shown: small tags and cut ends, also called S009-F7.33.24 humanized antibody VH1 + VL2) scFv: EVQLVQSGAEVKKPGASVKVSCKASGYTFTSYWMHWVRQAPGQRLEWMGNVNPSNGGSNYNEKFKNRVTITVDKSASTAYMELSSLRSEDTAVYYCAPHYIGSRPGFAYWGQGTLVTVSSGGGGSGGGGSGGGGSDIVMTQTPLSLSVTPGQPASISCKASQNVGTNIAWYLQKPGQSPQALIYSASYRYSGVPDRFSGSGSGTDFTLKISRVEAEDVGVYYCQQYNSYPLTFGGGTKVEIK

>  <OD450, OD450>
0.08

$$$$
>  <binder>
F7.33.24-H4 (scFv, not shown: small tags and cut ends, also called S009-F7.33.24 humanized antibody VH1a + VL1) scFv: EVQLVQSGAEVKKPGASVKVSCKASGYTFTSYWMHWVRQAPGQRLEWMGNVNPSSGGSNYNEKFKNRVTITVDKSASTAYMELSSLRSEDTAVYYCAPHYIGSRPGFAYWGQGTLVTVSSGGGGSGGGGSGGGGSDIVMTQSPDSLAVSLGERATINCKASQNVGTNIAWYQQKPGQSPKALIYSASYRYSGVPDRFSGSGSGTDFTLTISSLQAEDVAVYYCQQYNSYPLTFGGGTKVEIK

>  <OD450, OD450>
0.08

$$$$
>  <binder>
F7.33.24 (scFv, not shown: small tags and cut ends, also called S009-F7.33.24 (parental variable regions, in the humanized-antibody ELISA)) scFv: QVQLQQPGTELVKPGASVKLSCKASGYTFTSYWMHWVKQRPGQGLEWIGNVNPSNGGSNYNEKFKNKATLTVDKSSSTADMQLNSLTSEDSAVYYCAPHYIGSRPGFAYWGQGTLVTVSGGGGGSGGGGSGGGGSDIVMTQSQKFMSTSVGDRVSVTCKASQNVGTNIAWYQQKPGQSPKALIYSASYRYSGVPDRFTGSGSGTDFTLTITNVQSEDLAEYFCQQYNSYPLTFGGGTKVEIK

>  <OD450, OD450>
0.06

$$$$

Shifting focus to the binder that follows.
Challenge: Please indicate OD450 recorded for F7.33.24-H3 (scFv, not shown: small tags and cut ends, also called S009-F7.33.24 humanized antibody VH1 + VL3) scFv: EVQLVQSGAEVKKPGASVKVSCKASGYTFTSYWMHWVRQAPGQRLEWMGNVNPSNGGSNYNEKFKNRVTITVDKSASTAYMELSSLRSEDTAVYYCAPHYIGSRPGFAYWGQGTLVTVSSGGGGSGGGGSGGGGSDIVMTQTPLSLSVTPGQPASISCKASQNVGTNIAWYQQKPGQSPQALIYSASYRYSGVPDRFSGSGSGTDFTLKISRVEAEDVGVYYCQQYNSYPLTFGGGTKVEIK
Response given: 0.13
